Values were extracted from the Human Domainome abundance scans (Beltran et al. 2025).

B1: Gamma-crystallin C, residues 91 to 170; numbered along this chain, P07315 (parent)
chain: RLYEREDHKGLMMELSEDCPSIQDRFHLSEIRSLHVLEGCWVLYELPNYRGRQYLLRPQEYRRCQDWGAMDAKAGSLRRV

Variants of: B1
Run Description: abundance fitness (aPCA) (normalised: wild type 0, dead -1); higher = more abundant; growth selection in yeast, the domain comes from the species named
Protocol Conditions: Homo sapiens
Measured abundance fitness, listed per entry for reference.

L43M: -0.099
G39F: -0.759
E6M: -0.698
E45D: -0.265
L55A: -0.09
P47A: -0.07
D71F: -0.148
D7H: -0.221
L2A: -0.494
P47L: -0.601

[in] Give me measured abundance fitness, please, for this variant: E60V
[out] -0.117

[in] Find the measured abundance fitness of G68V and report it.
[out] -0.985

[in] Return the recorded abundance fitness value; entry: D18T
[out] -0.805

[in] Fill in abundance fitness for record W67T
[out] -0.612
